Values were extracted from patent US20110256064A1.

# Target entity: A®1-42 peptide (Homo sapiens)
# Construct: A®1-42 lyophilized powder (Bachem) was reconstituted in hexafluoroisopropanol (HFIP) to 1 mM; purchased Bachem
# Sequence (P05067 672-713): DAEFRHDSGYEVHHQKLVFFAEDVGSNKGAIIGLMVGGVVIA
# Test protocol: Thioflavin T spectrofluorescence assay (ThT-assay), inhibition of A®1-42 aggregation
# Format: biochemical
# Condition context: 330 µM small molecule, 33 µM A®1-42 (molar ratio 10:1), 10 µM ThT, 12.8% DMSO in PBS, 24 hrs at 37° C.; mean +/- SD of two independent experiments
Everything with inhibition at 330 µM lower than 50% is 0 (no); everything else, including exactly 50%, is 1 (yes).

[[record]]
compound = "FC(F)(F)c1ccc(Nc2cncc(NCC3CCOCC3)c2)cn1 [Example 19]"
answer_label = "0 (no)"

[[record]]
compound = "FC1(CNc2cncc(Nc3ccc(C(F)(F)F)cc3)c2)CCNCC1 [Example 16]"
answer_label = "1 (yes)"

[[record]]
compound = "FC(F)(F)c1ccc(Nc2cncc(N3CCOCC3)c2)cn1 [Example 3]"
answer_label = "0 (no)"


Turning now to a further record.
Would you say c1cc2ccc(Nc3cncc(NCC4CCNCC4)c3)nc2[nH]1 [Example 11] shows inhibition at 330 µM at minimum 50%?
1 (yes)

====

# Target entity: A®1-42 peptide (Homo sapiens)
# Construct: A®1-42 lyophilized powder (Bachem) was reconstituted in hexafluoroisopropanol (HFIP) to 1 mM; purchased Bachem
# Test protocol: Thioflavin T spectrofluorescence assay (ThT-assay), inhibition of A®1-42 aggregation
# Format: biochemical
# Condition context: 330 µM small molecule, 33 µM A®1-42 (molar ratio 10:1), 10 µM ThT, 12.8% DMSO in PBS, 24 hrs at 37° C.; mean +/- SD of two independent experiments
Reported inhibition at 330 µM is given for each of the following compounds.
The figure you give is taken to be in %; do not add the unit.

[[record]]
molecule_smiles = "FC(F)(F)c1ccc(Nc2cncc(NCC3CCOCC3)c2)cc1"
target_entity = "A®1-42 peptide (Homo sapiens)"
number = 51.7

[[record]]
molecule_smiles = "FC(F)(F)c1ccc(Nc2cncc(N3CCNCC3)c2)cn1"
target_entity = "A®1-42 peptide (Homo sapiens)"
number = 28.3

[[record]]
molecule_smiles = "c1ncc(Nc2ccc3c(C4CCNCC4)c[nH]c3c2)cc1NCC1CCNCC1"
target_entity = "A®1-42 peptide (Homo sapiens)"
number = 95.4

[[record]]
molecule_smiles = "FC1(CNc2cncc(Nc3ccc(C(F)(F)F)nc3)c2)CCNCC1"
target_entity = "A®1-42 peptide (Homo sapiens)"
number = 86.2

[[record]]
molecule_smiles = "Fc1cc(F)cc(Nc2cncc(N3CCNCC3)c2)c1"
target_entity = "A®1-42 peptide (Homo sapiens)"
number = 62.5


Lab note: c1ncc(N2CCNCC2)cc1N1CCNCC1 gave inhibition at 330 µM of 60.1

Lab note: Cn1c2c(c3ccc(Nc4cncc(NCC5(F)CCNCC5)c4)nc31)CCCC2 gave inhibition at 330 µM of 96.5

====

# Target entity: A®1-42 peptide (Homo sapiens)
# Construct: A®1-42 lyophilized powder (Bachem) was reconstituted in hexafluoroisopropanol (HFIP) to 1 mM; purchased Bachem
# Test protocol: Thioflavin T spectrofluorescence assay (ThT-assay), inhibition of A®1-42 aggregation
# Type: biochemical
# Condition context: 330 µM small molecule, 33 µM A®1-42 (molar ratio 10:1), 10 µM ThT, 12.8% DMSO in PBS, 24 hrs at 37° C.; mean +/- SD of two independent experiments
Everything with inhibition at 330 µM lower than 50% is NO; everything else, including exactly 50%, is YES.

[[record]]
molecule_smiles = "FC1(CNc2cncc(Nc3ccc4c5c([nH]c4n3)CCCC5)c2)CCNCC1"
target_entity = "A®1-42 peptide (Homo sapiens)"
answer_label = "YES"

[[record]]
molecule_smiles = "c1ncc(N2CCOCC2)cc1N1CCOCC1"
target_entity = "A®1-42 peptide (Homo sapiens)"
answer_label = "NO"

[[record]]
molecule_smiles = "CN1CCC(CNc2cncc(Nc3ccc(C(F)(F)F)nc3)c2)CC1"
target_entity = "A®1-42 peptide (Homo sapiens)"
answer_label = "NO"


Would you say c1ncc(Nc2ccc3c4c([nH]c3n2)CCCC4)cc1NCC1CCNCC1 shows inhibition at 330 µM at minimum 50%?
YES

Would you say c1cc2c(C3CCNCC3)c[nH]c2cc1Nc1cncc(N2CCOCC2)c1 shows inhibition at 330 µM at minimum 50%?
YES
